- Measurement notes: Biodistribution of 99mTc(N)(X)(DTC)+ heterocomplexes in rats
- Format: in vivo, male Spraque-Dawley rats (SD rats)
- Assay conditions: 10 min after injection
Quantity measured: Brain % dose/g (% dose/g)

Some entries whose results are on file:
COCCN1CC[P+](c2ccccc2)(c2ccccc2)[99Tc-2]2(#[N])([NH]N(C)C(SC)=[S+]2)[P+](c2ccccc2)(c2ccccc2)CC1 [^99mTc(N)(PNP2)(DTC)^+]; 0.040
CSC1=[S+][99Tc-2]2(#[N])([NH]N1C)[P+](c1ccccc1)(c1ccccc1)CCOCC[P+]2(c1ccccc1)c1ccccc1 [^99mTc(N)(POP)(DTC)^+]; 0.029

I = CCCN1CC[P+](c2ccccc2)(c2ccccc2)[99Tc-2]2(#[N])([NH]N(C)C(SC)=[S+]2)[P+](c2ccccc2)(c2ccccc2)CC1 [^99mTc(N)(PNP1)(DTC)^+]
II = COCCC[P]1(CCCOC)CCN(CCOC)CC[P](CCCOC)(CCCOC)[99Tc+]12(#[N])[NH]N(C)C(SC)=[S]2 [^99mTc(N)(PNP3)(DTC)^+]
Which record would sort first by descending Brain % dose/g, I or II ? Please reply using the label of the selected record. I

###

- Measurement notes: Biodistribution of 99mTc(N)(X)(DTC)+ heterocomplexes in rats
- Format: in vivo, male Spraque-Dawley rats (SD rats)
- Assay conditions: 2 hr after injection
Quantity measured: Liver % dose/g (% dose/g)

Some entries whose results are on file:
COCCN1CC[P+](c2ccccc2)(c2ccccc2)[99Tc-2]2(#[N])([NH]N(C)C(SC)=[S+]2)[P+](c2ccccc2)(c2ccccc2)CC1 [^99mTc(N)(PNP2)(DTC)^+]; 4.061
CCCN1CC[P+](c2ccccc2)(c2ccccc2)[99Tc-2]2(#[N])([NH]N(C)C(SC)=[S+]2)[P+](c2ccccc2)(c2ccccc2)CC1 [^99mTc(N)(PNP1)(DTC)^+]; 3.524

I = CSC1=[S+][99Tc-2]2(#[N])([NH]N1C)[P+](c1ccccc1)(c1ccccc1)CCOCC[P+]2(c1ccccc1)c1ccccc1 [^99mTc(N)(POP)(DTC)^+]
II = COCCC[P]1(CCCOC)CCN(CCOC)CC[P](CCCOC)(CCCOC)[99Tc+]12(#[N])[NH]N(C)C(SC)=[S]2 [^99mTc(N)(PNP3)(DTC)^+]
Between I and II , which one shows the smaller Liver % dose/g number? Please reply using the label of the selected record. II

###

- Measurement notes: Biodistribution of 99mTc(N)(X)(DTC)+ heterocomplexes in rats
- Format: in vivo, male Spraque-Dawley rats (SD rats)
- Assay conditions: 2 min after injection
Quantity measured: Muscle % dose/g (% dose/g)

CSC1=[S+][99Tc-2]2(#[N])([NH]N1C)[P+](c1ccccc1)(c1ccccc1)CCOCC[P+]2(c1ccccc1)c1ccccc1 [^99mTc(N)(POP)(DTC)^+]; 0.075

I = CCCN1CC[P+](c2ccccc2)(c2ccccc2)[99Tc-2]2(#[N])([NH]N(C)C(SC)=[S+]2)[P+](c2ccccc2)(c2ccccc2)CC1 [^99mTc(N)(PNP1)(DTC)^+]
II = COCCC[P]1(CCCOC)CCN(CCOC)CC[P](CCCOC)(CCCOC)[99Tc+]12(#[N])[NH]N(C)C(SC)=[S]2 [^99mTc(N)(PNP3)(DTC)^+]
Between I and II , which one shows the smaller Muscle % dose/g number? Please reply using the label of the selected record. I
(I: 0.085 % dose/g, II: 0.264 % dose/g)
